Measured activity change, negative = activation values are reported for all entries that follow.
target: Apoptotic protease-activating factor 1 (Homo sapiens) (UniProt O14727); assay: enhancers of Apaf-1-driven caspase-3 activation – biochemical, DEVD-Rh110 fluorescence, uHTS, primary screen (AID 489031); settings: Apaf-1 apoptosome caspase-3 activation, at 20 µM, active compounds read low
Sequence (O14727 whole entry, looked up): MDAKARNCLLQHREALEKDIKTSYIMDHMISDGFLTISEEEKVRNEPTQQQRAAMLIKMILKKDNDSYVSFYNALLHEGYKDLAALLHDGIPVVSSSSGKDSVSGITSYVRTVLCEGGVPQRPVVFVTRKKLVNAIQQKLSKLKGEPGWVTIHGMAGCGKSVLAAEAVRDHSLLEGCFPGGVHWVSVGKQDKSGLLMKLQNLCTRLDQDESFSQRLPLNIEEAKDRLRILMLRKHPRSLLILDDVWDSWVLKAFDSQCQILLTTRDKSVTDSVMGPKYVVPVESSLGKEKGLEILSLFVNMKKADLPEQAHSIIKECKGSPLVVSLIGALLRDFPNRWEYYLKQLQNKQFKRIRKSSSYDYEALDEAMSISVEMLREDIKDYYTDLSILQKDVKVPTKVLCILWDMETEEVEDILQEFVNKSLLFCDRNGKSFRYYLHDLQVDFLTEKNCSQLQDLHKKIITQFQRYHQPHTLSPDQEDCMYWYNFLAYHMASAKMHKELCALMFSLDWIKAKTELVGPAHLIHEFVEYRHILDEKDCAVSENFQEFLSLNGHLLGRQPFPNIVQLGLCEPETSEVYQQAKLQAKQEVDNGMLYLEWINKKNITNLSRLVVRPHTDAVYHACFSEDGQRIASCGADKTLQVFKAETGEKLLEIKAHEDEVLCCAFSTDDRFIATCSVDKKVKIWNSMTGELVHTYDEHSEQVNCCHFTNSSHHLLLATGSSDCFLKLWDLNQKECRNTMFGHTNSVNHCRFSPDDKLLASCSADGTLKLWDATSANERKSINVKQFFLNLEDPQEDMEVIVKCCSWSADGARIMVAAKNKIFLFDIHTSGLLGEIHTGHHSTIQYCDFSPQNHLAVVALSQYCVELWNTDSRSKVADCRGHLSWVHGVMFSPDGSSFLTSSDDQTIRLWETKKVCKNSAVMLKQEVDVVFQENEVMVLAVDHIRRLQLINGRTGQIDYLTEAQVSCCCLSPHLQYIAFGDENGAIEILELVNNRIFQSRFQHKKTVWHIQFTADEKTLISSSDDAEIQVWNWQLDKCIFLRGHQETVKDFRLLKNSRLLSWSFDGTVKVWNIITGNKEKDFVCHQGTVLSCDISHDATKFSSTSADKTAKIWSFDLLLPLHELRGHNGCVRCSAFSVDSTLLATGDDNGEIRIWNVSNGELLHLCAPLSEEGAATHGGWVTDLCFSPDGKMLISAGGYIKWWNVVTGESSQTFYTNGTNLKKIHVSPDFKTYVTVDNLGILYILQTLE
Among all 330,000 compounds or so, about 1,000 (0.3%) were called active. Only a selection was taken, and actives are over-represented in it overall.
Observed property: activity change, negative = activation (%)

Compound	Value measured
COC1=C(N2CCOCC2)C(=O)c2ccccc2C1=O	65.8
N#Cc1c(N2CCCCC2)nc(N)c2c(N)nc(SCC(=O)O)cc12	96
CC(NC(=O)c1ccccc1SCC(=O)N1CCCC1)c1ccccc1 (stereo not given)	41.6
Cc1cc(C)n(-c2nc(SCC(=O)N3CCCC3)c3c4c(sc3n2)CCCC4)n1	43.6
CN1CCN(c2ccccc2NC(=O)COc2ccc(C3CCCCC3)cc2)CC1	43.6
O=C(Nc1cccc(-c2nc3ccccc3[nH]2)c1)c1ccc(C(=O)Nc2cccc(-c3nc4ccccc4[nH]3)c2)cc1	-44
CN1CCN(CCCNC(=O)c2ccc(/C=C3\Oc4ccccc4N(Cc4ccc(Cl)cc4)C3=O)cc2)CC1	56.6
O=C(CN1C(=O)C2C3C=CC(C3)C2C1=O)NCCc1ccccc1Cl (stereo not given)	-99.8
O=C(Nc1ccccc1F)c1ccccc1-c1ccccc1	-42.2
Clc1ccc(C2=CSC3=Nc4cccc5cccc(c45)N23)cc1	90
